# Tested On: Serotonin 3 (5-HT3) receptor
# Measurement Notes: Binding affinity for human 5-hydroxytryptamine 3 serotonin membrane receptor using [3H]GR-65630
Quantity Measured: Ki (µM)

# Compound, Reported
measured = [
    ("c1ccc(-c2cnc3c(c2)C[C@@]2(CN4CCC2CC4)O3)cc1", 0.073),
    ("c1cncc(CNc2cnc3c(c2)C[C@@]2(CN4CCC2CC4)O3)c1", 2.22),
    ("O=C(NC1CN2CCC1CC2)c1ccc(-c2ccccc2)s1 (stereo not drawn)", 2.02),
    ("O=C(N[C@@H]1CN2CCC1CC2)c1ccc(-c2ccccc2)s1", 1.55),
    ("O=C(NC1CN2CCC1CC2)c1csc(-c2ccccc2)c1 (stereo not drawn)", 0.409),
    ("O=C(NC1CN2CCC1CC2)c1ccc(-c2cccs2)s1 (stereo not drawn)", 1.04),
    ("O=C(N[C@H]1CN2CCC1CC2)c1ccc(-c2ccccc2)s1 (racemic)", 2.02),
    ("O=C(NC1CN2CCC1CC2)c1csc(-c2ccccc2)n1 (stereo not drawn)", 0.665),
]
